- Test system: SR leukemia
- TEST DETAILS: NCI-60 one-dose screen, 48 h
- CONDITION NOTES: 10 µM unless noted
About 83,000 compounds went through this panel and 20% of them were active in at least one assay; those are over-represented in the sample as a whole. Calls of active or inactive are those of the source. The calls were made as follows: active = growth percent below 10; inactive = the rest.
Outcomes: true = active, false = inactive

CC(C)c1ccc(Nc2n[nH]c(=S)s2)cc1 | false
Oc1ccc2ccccc2c1N=Nc1ccccn1 | true
C/C(=N/NC(N)=S)c1ccc(C)cc1 | false
CC(C)=C1C=C2CC[C@@H]3[C@](C)(CCC[C@@]3(C)C(=O)O)[C@H]2CC1 | false
OC(Cc1cc(CC(O)(C(F)(F)F)C(F)(F)F)nc(CC(O)(C(F)(F)F)C(F)(F)F)c1)(C(F)(F)F)C(F)(F)F | true
CC1=CC(=O)C=CC1(C)C(Cl)(Cl)Cl (centres undefined) | false
N=C1C=C(N)C(=O)c2ccccc21 | true
CCCc1cc(=O)oc2c3c(c4c(c12)OC(C)(C)CC4)OC(C)[C@H](C)[C@@H]3O (some centres undefined) | false
Cc1cccc2c(N)c3ccccc3nc12 | true
COC(=O)C(=[N+]=[N-])C(=O)c1ccc([N+](=O)[O-])o1 | false
NC(=Nc1nc(-c2ccccn2)cc2ccccc12)c1ccccn1 | true
S=C(SSC(=S)N1CCOCC1)N1CCOCC1 | false
O=C(O)c1cc2c(s1)C(=O)c1sccc1C2=O | true
CCCCCCN(CCCCCC)CCCNc1nccc2ccccc12 | true
N=C(N)Sc1cccc[n+]1[O-] | true
NNc1cccc([N+](=O)[O-])c1 | false
Cc1ccccc1NC(=O)Cc1csc2[n+]1C(=O)/C(=C/c1ccc([N+](=O)[O-])cc1)S2 | false
Clc1ccc(-n2ncc3c(NCCCN4CCOCC4)ncnc32)cc1 | false
CCCCC(CCc1ccc([N+](=O)[O-])cc1)(C(C)=O)C(=O)OCC (centres undefined) | false
O=[N+]([O-])CC(O)c1ccccc1 (centres undefined) | false
CCN(CC)CC(O)CNc1ccc(NCC2CO2)c2c1C(=O)c1ccccc1C2=O (centres undefined) | true
COC1CC(C)C(OC)c2cc(O)cc(c2O)NC(=O)/C(C)=C/C=C\C(C)C(OC(N)=O)/C(C)=C\C(C)C1OC (centres undefined) | true
O=C(/C(Cl)=N/O)c1ccc(-c2ccccc2)cc1 | true
CCCOC(=O)c1nc(N(CC2CCCCC2)C(=O)NC)sc1/N=C/c1ccccc1 | true

---

- System: SNB-75 CNS
- TEST DETAILS: NCI-60 one-dose screen, 48 h (100 = growth as untreated, 0 = no growth, -100 = all killed)
- CONDITION NOTES: 10 µM unless noted
- Method: Growth inhibition of the SNB-75 human tumor cell line is measured as a screen for anti-cancer activity. Cells are grown in 96 well plates and exposed to the test compound for 48 hours. Compounds are tested at a single concentration, which is 10^-5 M for most compounds. The reported endpoint is percent growth (GI% or GIPRCNT), where numbers from 0 - 100% represent growth inhibition, and numbers from -100% - 0 represent cell death. For example, a value of 40 represents 60% growth inhibition. […]
This is part of a sample that, as a whole, favours compounds with a hit. Of some 83,000 tested, about 20% had one in any assay.
QUANTITY MEASURED: growth (%)

COc1cc(/C=C/C(=O)CC(=O)/C=C/c2ccc(O)c(OC)c2)ccc1O | 7.11
CCCCCCCCCCCC[n+]1ccc2ccccc2c1 | -21
Cc1nc(Sc2nc3ccc([N+](=O)[O-])cc3s2)sc1C | 53.1
O=[N+]([O-])c1ccc(N2CCN(Cc3ccccc3)CC2)c2c1no[n+]2[O-] | 68.4
CCCCCCCCc1cc(Cl)c(O)c(Cl)c1 | 98.4
COc1ccc(/C=C2/C(=O)ON=C2C)cc1 | 106
O=C(Nc1ccc(Cl)c(Cl)c1)Nc1ccccc1O | 67
CN1CCC(CN2c3ccccc3Sc3ccccc32)C1 (configuration not stated) | 57.7
O=[N+]([O-])CC(O)c1ccccc1 (configuration not stated) | 91.6
COc1ccc(C(Cn2ccnc2)Sc2ccc(Cl)c(Cl)c2)cc1 (configuration not stated) | 89.2
CN(C)c1ccc(C(=C2C=CC(=[N+](C)C)C=C2)c2ccc(N(C)C)cc2)cc1 | -49.7
O=C(c1ccc(O)c(Br)c1)c1ccc(O)c(Br)c1 | 94.9
Cc1cc2nc(CC(=O)c3ccncc3)c(=O)[nH]c2cc1C | 86.2
O=C1C(=O)c2cc([N+](=O)[O-])ccc2-c2ccccc21 | -98.2
COc1ccc2nc3cc(Cl)ccc3c(NCCCCCN3CCCCC3)c2c1 | -98.1
CCCCOS(=O)(=O)c1ccccc1 | 85.9
O=C1Nc2ccc(Br)cc2C1=O | 92.7
CCOC(=O)/C(=C\c1ccc2ccccc2c1)P(=O)(OCC)OCC | 35.2
NC(=S)Nc1ccc2c(c1)Cc1ccccc1-2 | 73.8
Oc1ccc(Br)cc1Sc1cc(Br)ccc1O | 59.4
CCCCCCCCCCCC[N+]1(CCCCCCCCCCCC)CCCC(C)C1 (configuration not stated) | -88.3
COC(=O)c1nc(=S)[nH]c(C(=O)OC)c1C(=O)c1ccc(Cl)c(Cl)c1 | 92.7
CCCCCCCCC(=O)OCCCC(CCC(CCC1CCCO1)OC(=O)CCCCCCCC)OC(=O)CCCCCCCC (configuration not stated) | 93.8
O/N=C1\c2ccccc2-c2ccc(F)cc21 | 91.1
Nc1nc2ncc(CNc3ccc(C(=O)NC(CCC(=O)NC(CCC(=O)NC(CCC(=O)NC(CCC(=O)NC(CCC(=O)O)C(=O)O)C(=O)O)C(=O)O)C(=O)O)C(=O)O)cc3)nc2c(=O)[nH]1 (configuration not stated) | 107
N#CC(=C1SCS1)[N+](=O)[O-] | 40.5
CC(=O)C1Cc2ccccc2C1=O (configuration not stated) | 70.8
Cc1cc(Br)c2nsnc2c1[N+](=O)[O-] | 50.1
Cc1ccc(/C=C2\CNC/C(=C\c3ccc(C)cc3)C2=O)cc1 | 29
CCCCCCC1N=C(N)N=C(N)N1c1cccc(Cl)c1 (configuration not stated) | -0.752
C/C(=N\NC(=S)N1CC2CCC(CC2)C1)c1ccccn1 | 33.8
CC(CSc1n[nH]c(=S)s1)c1ccccc1 (configuration not stated) | 85.1
Clc1ccc(Cc2nc3ccccc3s2)cc1 | 83.9
CCOc1ccc(C(C[N+](=O)[O-])Sc2ccccc2N)cc1 (configuration not stated) | 61.3
O=C(CCl)N1c2ccccc2Sc2c1ccc1ccccc21 | 60.2
O=C(Cc1nc2cc(Cl)c(Cl)cc2nc1CC(=O)c1cccnc1)c1cccnc1 | 88.4
N#Cc1c2ccccc2nc2ccccc12 | 97.8
CCOc1cc(F)c([N+](=O)[O-])cc1[N+](=O)[O-] | 64.5
CCC1CCCCN1C(=S)N/N=C(\C)c1ccccn1 (configuration not stated) | 16.1
[Cl-].[Rh+3].c1ccc(-c2ccnc3c2ccc2c(-c4ccccc4)ccnc23)cc1.c1ccc(-c2ccnc3c2ccc2c(-c4ccccc4)ccnc23)cc1.c1ccc(-c2ccnc3c2ccc2c(-c4ccccc4)ccnc23)cc1 | 102
C/C(=N/NC(N)=S)c1ccc(C)cc1 | 92.9
O=[N+]([O-])c1ccc(C2N(Cc3ccc(Cl)cc3)CCN2Cc2ccc(Cl)cc2)cc1 | 74.1
CCCCCCCCCCCC1=NCCCN1CCCC | 102
Cc1cc(I)nc2ccccc12 | 99.7
O=[N+]([O-])/C(=C/c1ccccc1)c1ccccc1 | 106
Oc1c(Cl)cc(Cl)cc1C=NCC1CCC(CN=Cc2cc(Cl)cc(Cl)c2O)CC1 (configuration not stated) | 66.9
O=C(Nc1cccc(C(F)(F)F)c1)Oc1ccc(Cl)c2cccnc12 | 65.9

---

- Test system: UO-31 renal
- TEST DETAILS: NCI-60 one-dose screen, 48 h (100 = growth as untreated, 0 = no growth, -100 = all killed)
- CONDITION NOTES: 10 µM unless noted
About 83,000 compounds went through this panel and 20% of them were active in at least one assay; those are over-represented in the sample as a whole.
Decide by growth: equal to or exceeding 80% means label 1, less means label 0.

NNc1ccc(Cl)cc1Cl | label 0
CN=C(N)N/N=C(\C)c1ccc2c(c1)Cc1ccccc1-2 | label 0
NC(CS/C(Cl)=C/Cl)C(=O)O (stereo not drawn) | label 1
c1ccc2sc(SSN3CC4CCC(CC4)C3)nc2c1 | label 0
CC(=O)N1CC(=O)NC1=S | label 1
CC(O)C(O)C(O)C(O)C(O)C(=O)NNc1ccccc1 (stereo not drawn) | label 0
O=C(c1ccc(O)c(Br)c1)c1ccc(O)c(Br)c1 | label 1
CCCCCCC1N=C(N)N=C(N)N1c1cccc(Cl)c1 (stereo not drawn) | label 1
C/C=C/c1cc2c(c(=O)o1)C(=O)[C@@H](O)[C@H](C)O2 | label 0
O=C(O)c1cc2c(s1)C(=O)c1sccc1C2=O | label 0
C1=C(c2ccccc2)c2ccccc2C1 | label 0
